# System: spores of ATCC BBA1870 strain
# protocol_summary: Inhibition of germination of C. difficile spores (MIC), strain ATCC BBA1870
# Assay type: cell-based
# condition_info: Clostridioides difficile, ATCCBBA1870STRAIN, 1 h; strain 1870; sodium taurocholate as germinant, BHIS medium, 37° C., OD580 for 60 min; read-out: MIC (minimum concentration that completely inhibits spore germination)
Measured MIC by item

Example entries and their recorded answers appear below.
1) CC(C)[C@H](NC(=O)C[C@@H](C)[C@H]1CC[C@H]2[C@@H]3[C@H](O)C[C@@H]4CC(=O)CC[C@]4(C)[C@H]3CC[C@]12C)c1ccc(S(=O)(=O)O)s1
> 256 µM
2) CC[C@H](NC(=O)C[C@@H](C)[C@H]1CC[C@H]2[C@@H]3[C@H](O)C[C@@H]4CC(=O)CC[C@]4(C)[C@H]3CC[C@]12C)c1ccc(Br)s1
> 256 µM

Attention now turns to another entry.
IN: Tell me measured MIC for CC[C@H](NC(=O)C[C@@H](C)[C@H]1CC[C@H]2[C@@H]3C(=O)C[C@@H]4CC(=O)CC[C@]4(C)[C@H]3CC[C@]12C)c1ccc(S(=O)(=O)O)s1 please.
OUT: > 256 µM
